Origin of measurements: ChEMBL document CHEMBL5042481

target: CYP2C9 (Homo sapiens); test: Inhibition of CYP2C9 (unknown origin) at 10 uM relative to control; format: ADME
Sequence (P11712 whole entry): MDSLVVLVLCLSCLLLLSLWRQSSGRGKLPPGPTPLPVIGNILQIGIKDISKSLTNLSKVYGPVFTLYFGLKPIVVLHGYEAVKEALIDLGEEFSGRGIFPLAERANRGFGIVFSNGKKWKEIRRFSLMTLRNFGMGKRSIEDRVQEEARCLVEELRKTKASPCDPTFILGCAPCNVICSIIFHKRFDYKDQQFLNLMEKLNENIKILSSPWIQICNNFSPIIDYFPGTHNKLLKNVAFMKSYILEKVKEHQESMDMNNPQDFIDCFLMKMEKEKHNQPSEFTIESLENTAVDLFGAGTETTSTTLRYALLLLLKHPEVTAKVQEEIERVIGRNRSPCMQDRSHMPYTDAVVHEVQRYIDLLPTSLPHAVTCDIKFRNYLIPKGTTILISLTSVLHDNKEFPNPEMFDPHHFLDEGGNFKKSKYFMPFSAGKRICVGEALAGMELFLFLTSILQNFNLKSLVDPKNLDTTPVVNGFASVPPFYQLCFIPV
reported.metric: inhibition at 10 µM (%)
Give bare numbers, in %.

Observe how each entry below is paired with its result.
O=C(Cn1nnc2ccccc21)N(Cc1cccc(Cl)c1)c1ccc(-c2c[nH]cn2)cc1: 100
O=C(Cc1cncnc1)N(Cc1cccc(Cl)c1)c1ccc(-c2cn[nH]c2)cc1: 92
O=C(Cn1nnc2ccccc21)N(Cc1cccc(Cl)c1)c1ccc(-c2cn[nH]c2)cc1: 99

Incoming: GET /values?readout=inhibition at 10 µM&item= `O=C(Cc1cccnc1)N(Cc1cccc(Cl)c1)c1ccc(-c2cn[nH]c2)cc1`
Outgoing: 99

* * *

test: Protein binding in human plasma assessed as unbound fraction; assay type: ADME, cell-free
reported.metric: fraction unbound
Answers are plain numbers.

O=C(Cn1nnc2ccccc21)N(Cc1cccc(Cl)c1)c1ccc(-c2cn[nH]c2)cc1: 0.001
O=C(Cc1cccnc1)N(Cc1cccc(Cl)c1)c1ccc(-c2cn[nH]c2)cc1: 0.004
O=C(Cn1nnc2ccccc21)N(Cc1ccsc1)c1ccc(-c2c[nH]cn2)cc1: 0.01
O=C(Cn1nnc2ccccc21)N(Cc1cccc(Cl)c1)c1ccc(-c2c[nH]cn2)cc1: 0.007

Incoming: GET /values?readout=fraction unbound&item= `O=C(Cc1cncnc1)N(Cc1cccc(Cl)c1)c1ccc(-c2cn[nH]c2)cc1`
Outgoing: 0.018

* * *

assay: Apparent passive permeability in MDCK-MDR1 cells; assay type: ADME, cell-based, Canis lupus familiaris; conditions: dog
reported.metric: Papp (×10⁻⁶ cm/s)
Answers are plain numbers, in ×10⁻⁶ cm/s.

O=C(Cn1nnc2ccccc21)N(Cc1cccc(Cl)c1)c1ccc(-c2cn[nH]c2)cc1: 39.4
O=C(Cc1cncnc1)N(Cc1cccc(Cl)c1)c1ccc(-c2cn[nH]c2)cc1: 66.7

Value sought for every listed compound: Papp.
1. O=C(Cn1nnc2ccccc21)N(Cc1cccc(Cl)c1)c1ccc(-c2c[nH]cn2)cc1
2. O=C(Cc1cccnc1)N(Cc1cccc(Cl)c1)c1ccc(-c2cn[nH]c2)cc1

Outgoing:
[46.1, 61.8]

* * *

Answer each item with its documented inhibition at 10 µM.
biological target: UniProtKB P08684; assay: Inhibition of CYP3A4 (unknown origin) at 10 uM relative to control; assay type: ADME
Sequence (P08684 whole entry): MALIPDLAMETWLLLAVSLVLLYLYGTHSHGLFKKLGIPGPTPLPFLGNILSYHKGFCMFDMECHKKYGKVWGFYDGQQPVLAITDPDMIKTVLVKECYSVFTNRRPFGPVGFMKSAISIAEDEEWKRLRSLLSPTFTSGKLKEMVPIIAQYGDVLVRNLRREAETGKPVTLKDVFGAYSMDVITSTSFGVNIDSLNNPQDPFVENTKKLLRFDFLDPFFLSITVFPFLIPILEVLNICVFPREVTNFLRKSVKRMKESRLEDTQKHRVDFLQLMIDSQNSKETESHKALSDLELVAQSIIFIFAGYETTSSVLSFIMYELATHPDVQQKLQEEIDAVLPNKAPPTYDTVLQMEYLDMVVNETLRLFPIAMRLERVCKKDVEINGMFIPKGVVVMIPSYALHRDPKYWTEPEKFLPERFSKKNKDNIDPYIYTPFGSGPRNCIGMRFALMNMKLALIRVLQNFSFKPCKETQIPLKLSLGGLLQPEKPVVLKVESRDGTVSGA
Numbers only, in %.

Observe how each entry below is paired with its result.
O=C(Cn1nnc2ccccc21)N(Cc1cccc(Cl)c1)c1ccc(-c2c[nH]cn2)cc1: 100
O=C(Cn1nnc2ccccc21)N(Cc1cccc(Cl)c1)c1ccc(-c2cn[nH]c2)cc1: 96
O=C(Cc1cncnc1)N(Cc1cccc(Cl)c1)c1ccc(-c2cn[nH]c2)cc1: 88

Now turn to the next compound.
Incoming: GET /values?readout=inhibition at 10 µM&item= `O=C(Cc1cccnc1)N(Cc1cccc(Cl)c1)c1ccc(-c2cn[nH]c2)cc1`
Outgoing: 99

* * *

target: CYP2D6 (Homo sapiens); test: Inhibition of CYP2D6 (unknown origin) at 10 uM relative to control; format: ADME
Sequence (P10635 whole entry): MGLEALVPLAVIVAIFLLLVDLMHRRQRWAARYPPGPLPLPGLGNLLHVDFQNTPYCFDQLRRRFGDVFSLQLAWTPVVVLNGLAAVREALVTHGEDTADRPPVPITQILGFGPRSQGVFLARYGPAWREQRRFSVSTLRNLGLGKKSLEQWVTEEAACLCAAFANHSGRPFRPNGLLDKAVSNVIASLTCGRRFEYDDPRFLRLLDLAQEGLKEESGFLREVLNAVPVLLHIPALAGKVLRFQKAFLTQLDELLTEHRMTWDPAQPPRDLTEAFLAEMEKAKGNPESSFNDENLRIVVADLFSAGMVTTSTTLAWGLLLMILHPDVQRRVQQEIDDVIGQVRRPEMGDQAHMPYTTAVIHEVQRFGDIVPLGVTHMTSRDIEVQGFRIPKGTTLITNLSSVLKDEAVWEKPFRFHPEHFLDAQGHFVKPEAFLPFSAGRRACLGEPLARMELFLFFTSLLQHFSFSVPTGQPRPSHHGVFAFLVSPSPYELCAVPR
reported.metric: inhibition at 10 µM
Please don't drop the unit; write it after the number.

O=C(Cn1nnc2ccccc21)N(Cc1cccc(Cl)c1)c1ccc(-c2c[nH]cn2)cc1: 87%

Value sought for every listed compound: inhibition at 10 µM.
1. O=C(Cc1cccnc1)N(Cc1cccc(Cl)c1)c1ccc(-c2cn[nH]c2)cc1
2. O=C(Cc1cncnc1)N(Cc1cccc(Cl)c1)c1ccc(-c2cn[nH]c2)cc1
3. O=C(Cn1nnc2ccccc21)N(Cc1cccc(Cl)c1)c1ccc(-c2cn[nH]c2)cc1

Outgoing:
["55%", "26%", "63%"]
